Test system: Tov112D
Experiment: Primary qHTS to identify gynecologic anti-cancer compounds using libraries of approved drugs and bioactive compounds (AID 1345084); further: nearly all actives have a fitted effect of over 55% in size
Conditions: Gynecologic cancer cell panel viability, ATPlite luminescence, 48 h; series mostly up to 57.5 µM
Excerpt: National Center for Advancing Translational Sciences [NCATS] Assay Overview: Chemotherapeutic drug responses vary from cancer to cancer and from patient to patient. […] ATPlite is a luminescence based assay reliant on the conversion of a luciferase substrate to light in the presence of ATP. As a cytotoxic compound will suppress growth and decrease the number of cells, the concentration of ATP will decrease, and less light signal will be detected in the well. […]
Inconclusive results are not listed. Active and inactive are the calls of the source. The call rests on the fitted dose curve; in most records, active means well fitted cell-killing curve with a large enough effect; inconclusive means small, poorly fitted or top-dose-only effect, or effect the other way; inactive means flat fitted curve, though single readings scatter.
Respond using exactly one of the listed classes: active, inactive

Examples from the recorded data:
NCCCNc1ccc(Nc2nccc(Nc3cc(C4CC4)[nH]n3)n2)cc1 :: active
Cc1oc2ccccc2c1CNC(=O)NCc1cccs1 :: inactive
Cc1cc(Cl)ccc1COc1ccnn1-c1cc(C(=O)O)ccn1 :: inactive
C[C@@H]1CCN(C(=O)N2CCCC2)C[C@@H]1N(C)c1ncnc2[nH]ccc12 :: inactive
C[C@@H]([C@@H](O)c1ccc(O)cc1)N1CCC(O)(c2ccccc2)CC1 :: inactive

We next turn to a different molecule, shown below.
Which outcome was assigned to `CCOc1ccc(S(=O)(=O)n2c(C)nc3ccccc32)cc1` in this test?
inactive
